system: M14; assay: NCI tumour cell line growth inhibition, 48 h
Active and inactive are the calls of the source. Cut-off read from the data, not from the text of the source: active = GI50 up to about 1.1 µM and inactive = higher.
Measured Attribute: GI50

Here's what some known entries look like.
* O=C(CCc1cc(O)cc(O)c1)NCCc1cc(OCc2ccccc2)cc(OCc2ccccc2)c1 | 13.2 µM (inactive)
* COc1cc(Br)c(/C=N\c2cccc3cc(OC)c(OC)cc23)cc1OC | 30 µM (inactive)
* Cc1cc(=O)oc2c(CNC(CO)C(=O)O)c(O)ccc12 (configuration not stated) | > 100 µM (inactive)
* COc1cc(C(=O)C/C(CCC(=O)Nc2ccccc2[N+](=O)[O-])=N\NC(=O)CC#N)ccc1O | > 100 µM (inactive)
* COc1ccc(-c2nc(-c3cnccn3)n(C3OC(CO)C(O)C3O)n2)cc1 (configuration not stated) | > 10 µM (inactive)

Please report GI50 for every entry that follows.
1. NC1=CN(Cc2ccccc2)C2=N/C(=C\c3ccccc3)C(=O)N12
2. O=C1/C(=C/c2ccc([N+](=O)[O-])cc2)CNC/C1=C\c1ccc([N+](=O)[O-])cc1

Response:
["> 100 µM (inactive)", "12.5 µM (inactive)"]

Provide the reported GI50 of each entry below, same order.
1. Oc1ccc(Cl)cc1-c1cc(-c2ccccc2)nc(NCN2CCCCC2)n1
2. COC(=O)Cc1ccc2c(c1)Sc1ccc(CC(=O)OC)cc1N2C
3. S=C=NC1CCC(c2cc3ccccc3s2)(N2CCCCC2)CC1 (configuration not stated)
4. C[C@@H]1C[C@@H]2OC(=O)[C@]3(C)[C@H]2[C@@H](OC3(C)O)[C@]2(C)C(=O)C=C[C@@H]12 (some centres not stated)

Response:
> 100 µM (inactive)
30.3 µM (inactive)
1.86 µM (inactive)
20.6 µM (inactive)

I'm hoping you can list GI50 for every compound here, please.
1. O=C(/C(=C(/Br)I)c1ccccc1)c1ccccc1
2. OC(CCNC12CC3CC(CC(C3)C1)C2)c1ccccc1 (configuration not stated)
3. CC(OC1CC(=O)CC2C(=O)C=CC(=O)C12)c1ccccc1 (configuration not stated)

Response:
1: 16.3 µM (inactive); 2: 40.4 µM (inactive); 3: 18.7 µM (inactive)

Could you tell me GI50 for each of these compounds? They are listed below.
1. CC(=O)CC[N+](C)(C)C
2. O=C1C(Cl)=C(N2CCN(CCOCCO)CC2)C(=O)c2ccccc21
3. O=[N+]([O-])C(/C(Cl)=C(/Cl)N1CCOCC1)=C1\Nc2ccccc2O1
4. COc1cc(OC)c2ssc3c(OC)cc(OC)c4ssc1c2-c43
5. Cn1c(=O)c2[nH]c(N=O)nc2n(C)c1=O

Response:
23 µM (inactive)
9.29 µM (inactive)
> 100 µM (inactive)
> 100 µM (inactive)
> 100 µM (inactive)

* * *

Kindly supply the reported GI50 values for the records listed here.
tested on: Malme-3M; experiment: NCI tumour cell line growth inhibition, 48 h
Activity calls are given as the source filed them. No stated cut-off is given here; in the data, active = GI50 up to about 1.1 µM and inactive = higher.

Consider the reported GI50 for these compounds:
• O=C(c1ccc(Cl)cc1)N(C(=S)N1CCN(c2ccccc2)CC1)c1ccccc1 = > 100 µM (inactive)
• Cc1cn(C2CC(O)C(Cn3nncc3Cn3nc(Br)c(=O)[nH]c3=O)O2)c(=O)[nH]c1=O (stereo unspecified) = > 100 µM (inactive)
• N#C/C(=C1\SC(/N=N/c2ccccc2)C(=O)N1c1ccccc1)c1nc2ccccc2[nH]1 (stereo unspecified) = > 100 µM (inactive)
• CC(SC(=S)N1CCCC1)C(=O)Nc1nnc(-c2ccc(Cl)cc2)o1 (stereo unspecified) = 23.8 µM (inactive)
• CN1CCN(c2cc3nsnc3c3nsnc23)CC1 = > 10 µM (inactive)

List GI50 for every entry below, keeping the order given.
1. O=C1CC2CCCCC2=C1O (stereo unspecified)
2. Cn1c(=O)c2[nH]c(N=O)nc2n(C)c1=O
3. C[C@@H]1C[C@@H]2OC(=O)[C@]3(C)[C@H]2[C@@H](OC3(C)O)[C@]2(C)C(=O)C=C[C@@H]12 (stereo partly specified)
4. CCCS(=O)(=O)/C(=C(\c1ccc(Br)cc1)S(=O)(=O)CCC)c1ccc(Br)cc1
5. Cc1nnc2n1N=C(c1cc(F)c(Cl)cc1Cl)/C(=C/c1ccc(-c3ccc([N+](=O)[O-])cc3)o1)S2
6. COc1ccc(C(C)NNC(=O)c2cc[n+]([BH2-]C#N)cc2)cc1F (stereo unspecified)
7. Cc1nn(C(=O)CC(=O)Nc2ccccc2Cl)c(C)c1/N=N/c1ccccc1Cl
8. Fc1ccc(F)c(C2SCc3nc4ccccc4n32)c1 (stereo unspecified)

Response:
> 100 µM (inactive)
> 100 µM (inactive)
13.6 µM (inactive)
> 10 µM (inactive)
> 100 µM (inactive)
> 100 µM (inactive)
> 100 µM (inactive)
57.1 µM (inactive)

Kindly give each listed record's GI50.
1. O=C(NCCCNCCNC(=O)c1cc(-c2ccccc2)nc2ccccc12)c1cc(-c2ccccc2)nc2ccccc12
2. CCOC(=O)C1=C(C)N(Cc2ccccc2)C(C)=C(C(=O)OCC)C1c1ccccc1O
3. O=[N+]([O-])c1nccn1CC(O)CN1CC1 (stereo unspecified)

Response:
1: 1.88 µM (inactive); 2: 26 µM (inactive); 3: > 100 µM (inactive)

* * *

Answer each item with its documented GI50.
tested on: KM12; test: NCI tumour cell line growth inhibition, 48 h
The source made the active and inactive calls. Rule as the data show it: active = GI50 up to about 1.1 µM and inactive = higher.

* COc1ccc2c(c1)C1Oc3ccccc3CC1(O)CO2 (stereo unspecified) | > 100 µM (inactive)
* COc1cccc(C2c3cc4c(cc3OC(NNC(N)=O)C2C)OCO4)c1OC (stereo unspecified) | 23.2 µM (inactive)
* COc1nc2c(c(=O)n1C)N(C(C)=O)C1C(N2)OCC(OC(C)=O)C1OC(C)=O (stereo unspecified) | > 10 µM (inactive)

Kindly give each listed record's GI50.
1. COc1cc2c3c(c1OC)C1(C=CC(=O)C=C1)C[C@H]3N(C)CC2
2. CC1CC/C(=C\c2ccc(F)cc2)C(=O)/C1=C/c1ccc(F)cc1 (stereo unspecified)

Response:
["> 100 µM (inactive)", "2.97 µM (inactive)"]

For every item below, please supply its GI50.
1. CC(C)[C@@H]1NC(=O)[C@@H]2N=C(O[C@H]2C)[C@H](C(C)C)NC(=O)C2N=C1O[C@H]2C
2. Cc1cc(C)nc(NS(=O)(=O)c2ccc(NC(=O)c3cccc4c(Nc5ccc(S(=O)(=O)Nc6nc(C)cc(C)n6)cc5)c5ccccc5nc34)cc2)n1
3. O=S(=O)(O)c1ccc([Se][Se]c2ccc(S(=O)(=O)O)cc2)cc1
4. COc1ccc(-n2c(SC(CN3CCOCC3)CN3CCCC3=O)nc3ccccc3c2=O)cc1 (stereo unspecified)
5. COc1ccc([C@H]2CC(=O)C[C@H](c3ccc(OC)cc3)C23C(=O)c2ccccc2C3=O)cc1
6. CCOc1cc(/C=N/c2ccc(Oc3ccc(Cl)cc3)c(Cl)c2)ccc1O
7. CC(C)CCCC(C)[C@H]1CC[C@H]2NCCCC[C@]12C (stereo partly specified)

Response:
1: > 100 µM (inactive); 2: 18.5 µM (inactive); 3: > 100 µM (inactive); 4: > 100 µM (inactive); 5: 4.13 µM (inactive); 6: 18.2 µM (inactive); 7: 2.68 µM (inactive)

Fill in GI50 for each of the 8 compounds listed.
1. Cc1cc(=O)oc2c(CNC(CO)C(=O)O)c(O)ccc12 (stereo unspecified)
2. Cc1c2cc[n+](C)cc2c(C)c2c1sc1ccccc12
3. CCOC(=O)c1nc2ccc(C(F)(F)F)cc2nc1Nc1ccc(F)cc1
4. O=C(O)c1oc2ccc([N+](=O)[O-])c3c2c1CCC3
5. CCO[C@@H]1OC(=O)[C@@](C)(C(C)=O)[C@@H]1C
6. C/C=C/CC(C)[C@@H](O)[C@H](NC)C(=O)O (stereo partly specified)
7. CCOC(=O)c1nc2c3c(ncn2n1)Oc1c(c(-c2ccccc2)nn1-c1ccccc1)C3c1ccc(OC)c(OC)c1 (stereo unspecified)
8. COC(=O)C1C2C=CC(C2)N1[C@@H](C)c1ccccc1 (stereo partly specified)

Response:
1. > 100 µM (inactive)
2. 0.457 µM (active)
3. > 100 µM (inactive)
4. > 100 µM (inactive)
5. 28.4 µM (inactive)
6. > 100 µM (inactive)
7. > 10 µM (inactive)
8. > 100 µM (inactive)

For every item below, please supply its GI50.
1. CS/C(=N\C#N)NC1CC(n2cc(C)c(=O)[nH]c2=O)OC1CO (stereo unspecified)
2. CCN(CC)CCNc1ccc2ncn3c4ccc(OC)cc4c(=O)c1c23
3. CN1CCN(c2cc3nsnc3c3nsnc23)CC1
4. CCOC(=O)C1=C(C)N(Cc2ccccc2)C(C)=C(C(=O)OCC)C1c1ccccc1O

Response:
["> 100 µM (inactive)", "1.78 µM (inactive)", "> 10 µM (inactive)", "23.7 µM (inactive)"]

Please give GI50, item by item, for the list that follows.
1. O=C(CCc1cc(O)cc(O)c1)NCCc1cc(OCc2ccccc2)cc(OCc2ccccc2)c1
2. CC(C)C1CC(O)O[C@@H]([C@@H](C)[C@H]2CC(=O)[C@@H]3[C@@H]4[C@@H](O)[C@H](O)[C@H]5[C@@H](O)[C@H](O)CC[C@]5(C)[C@H]4CC[C@]23C)C1 (stereo partly specified)

Response:
12.6 µM (inactive)
28.6 µM (inactive)
